This listing pairs molecules with measured EC50.
target: GLP-1R (Homo sapiens, UniProt P43220); experiment: EC20 GLP-1(9-36) PAM cAMP assay: dose response of compound in the presence of fixed concentration of GLP-1(9-36); details: GLP-1R CRE-bla CHO-K1 cells, compound dose response in presence of fixed concentration of GLP-1(9-36)
Sequence (P43220 24-463): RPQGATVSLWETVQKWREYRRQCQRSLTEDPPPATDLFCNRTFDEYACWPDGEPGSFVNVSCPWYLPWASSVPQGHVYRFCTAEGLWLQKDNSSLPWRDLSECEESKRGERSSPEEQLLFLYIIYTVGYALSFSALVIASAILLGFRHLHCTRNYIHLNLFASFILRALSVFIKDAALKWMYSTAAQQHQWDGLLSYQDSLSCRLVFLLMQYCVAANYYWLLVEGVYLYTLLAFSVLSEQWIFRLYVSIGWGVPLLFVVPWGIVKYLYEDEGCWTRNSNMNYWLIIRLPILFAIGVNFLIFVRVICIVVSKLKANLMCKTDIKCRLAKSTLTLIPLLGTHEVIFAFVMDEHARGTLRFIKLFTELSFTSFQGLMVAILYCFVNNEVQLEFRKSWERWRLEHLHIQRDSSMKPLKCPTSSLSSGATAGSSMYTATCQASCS
Sequence (P01275 100-127 partner limits assumed): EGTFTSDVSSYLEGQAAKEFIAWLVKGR
EXPERIMENTAL_READOUT: EC50

[[record]]
molecule_smiles = "CCCCCCCOc1ccc(-c2cnc(-c3ccc(C[C@H](NS(=O)(=O)c4ccc(OC(C)C)cc4)C(=O)O)cc3)nc2)cc1"
experimental_readout = "EC50"
reported_result = "0.8 to 2.5 µM"

[[record]]
molecule_smiles = "CCCCCCCOc1ccc(-c2cnc(-c3ccc(C[C@H](NC(=O)c4ccc(S(=O)(=O)C(C)C)cc4)C(=O)O)cc3)nc2)cc1"
experimental_readout = "EC50"
reported_result = "0.8 to 2.5 µM"

[[record]]
molecule_smiles = "CC(C)(C)c1ccc(C(=O)N[C@@H](Cc2ccc(-c3noc(-c4ccc5ccccc5c4)n3)cc2)C(=O)O)cc1"
experimental_readout = "EC50"
reported_result = "2.5 to 5 µM"

[[record]]
molecule_smiles = "CC(C)(C)c1ccc(C(=O)N[C@@H](Cc2ccc(-c3noc(-c4ccc(OCc5ccccc5)cc4)n3)cc2)C(=O)O)cc1"
experimental_readout = "EC50"
reported_result = "2.5 to 5 µM"

[[record]]
molecule_smiles = "Cc1cc(-c2cnc(-c3ccc(C[C@H](NC(=O)c4ccc(C(C)(C)C)cc4)C(=O)O)cc3)nc2)ccc1N(C)C"
experimental_readout = "EC50"
reported_result = "0.8 to 2.5 µM"

[[record]]
molecule_smiles = "CC(C)(C)c1ccc(-c2cnc(-c3ccc(C[C@H](NC(=O)c4ccc(C(C)(C)C)s4)C(=O)N4CCC[C@@H]4C(=O)O)cc3)nc2)cc1"
experimental_readout = "EC50"
reported_result = "0.8 to 2.5 µM"

[[record]]
molecule_smiles = "Cn1ccc2c(-c3cnc(-c4ccc(C[C@H](NC(=O)c5ccc(C(C)(C)C)cc5)C(=O)O)cc4)nc3)cccc21"
experimental_readout = "EC50"
reported_result = "2.5 to 5 µM"

[[record]]
molecule_smiles = "CCCCCCCOc1ccc(-c2cnc(-c3ccc(C[C@H](NC(=O)c4cc5c(s4)CCC5)C(=O)O)cc3)nc2)cc1"
experimental_readout = "EC50"
reported_result = "0.8 to 2.5 µM"

[[record]]
molecule_smiles = "CCCCCCCOc1ccc(-c2cnc(-c3ccc(C[C@H](NC(=O)c4ccc(C(C)(C)C)o4)C(=O)O)cc3)nc2)cc1"
experimental_readout = "EC50"
reported_result = "0.8 to 2.5 µM"

[[record]]
molecule_smiles = "CCCCCCCOc1ccc(-c2cnc(-c3ccc(C[C@H](NS(=O)(=O)c4ccccc4)C(=O)O)cc3)nc2)cc1"
experimental_readout = "EC50"
reported_result = "0.8 to 2.5 µM"

[[record]]
molecule_smiles = "CC(C)n1cc(C(=O)N[C@@H](Cc2ccc(-c3ncc(-c4ccc(C(C)(C)C)cc4)cn3)cc2)C(=O)NCC(=O)O)cn1"
experimental_readout = "EC50"
reported_result = "0.8 to 2.5 µM"

[[record]]
molecule_smiles = "CC(C)c1cc(C(=O)N[C@@H](Cc2ccc(-c3ncc(-c4ccc(C(C)(C)C)cc4)cn3)cc2)C(=O)O)cs1"
experimental_readout = "EC50"
reported_result = "5 to 10 µM"

[[record]]
molecule_smiles = "CC(C)(C)c1ccc(C(=O)N[C@@H](Cc2ccc(-c3ncc(-c4ccccc4)cn3)cc2)C(=O)O)cc1"
experimental_readout = "EC50"
reported_result = "2.5 to 5 µM"

[[record]]
molecule_smiles = "CC(C)(C)c1ccc(C(=O)N[C@@H](Cc2ccc(-c3ncc(-c4cccc(Cl)c4)cn3)cc2)C(=O)O)cc1"
experimental_readout = "EC50"
reported_result = "5 to 10 µM"

[[record]]
molecule_smiles = "CCCCCCCOc1ccc(-c2nnc(-c3ccc(C[C@H](NC(=O)c4ccc(C(C)(C)C)cc4)C(=O)O)cc3)s2)cc1"
experimental_readout = "EC50"
reported_result = "0.8 to 2.5 µM"

[[record]]
molecule_smiles = "CN(CCO)c1ccc(-c2nc(-c3ccc(C[C@H](NC(=O)c4ccc(C(C)(C)C)cc4)C(=O)O)cc3)no2)cc1"
experimental_readout = "EC50"
reported_result = "2.5 to 5 µM"

[[record]]
molecule_smiles = "CCCCCCCOc1ccc(-c2cnc(-c3ccc(C[C@H](NC(=O)c4ccc(CO)cc4)C(=O)O)cc3)nc2)cc1"
experimental_readout = "EC50"
reported_result = "0.8 to 2.5 µM"

[[record]]
molecule_smiles = "CN(C)c1cccc(-c2nc(-c3ccc(C[C@H](NC(=O)c4ccc(C(C)(C)C)cc4)C(=O)O)cc3)no2)c1"
experimental_readout = "EC50"
reported_result = "2.5 to 5 µM"


* * *

Listed here are compounds together with their documented pEC50.
target: GLP-1R (Homo sapiens, UniProt P43220); assay: EC20 GLP-1(9-36) PAM cAMP assay: dose response of compound in the presence of fixed concentration of GLP-1(9-36); conditions: GLP-1R CRE-bla CHO-K1 cells, compound dose response in presence of fixed concentration of GLP-1(9-36)
pEC50: −log10 of the molar value.
EXPERIMENTAL_READOUT: pEC50

[[record]]
molecule_smiles = "CC(C)(C)c1ccc(C(=O)N[C@@H](Cc2ccc(-c3ncc(-c4ccc(C(F)(F)F)cc4)cn3)cc2)C(=O)O)s1"
reported_result = "5.30 to 5.60"

[[record]]
molecule_smiles = "CCc1ccc(C(=O)N[C@@H](Cc2ccc(-c3ncc(-c4ccc(C(C)(C)C)cc4)cn3)cc2)C(=O)O)cc1"
reported_result = "5.60 to 6.10"

[[record]]
molecule_smiles = "CC(C)(C)c1ccc(C(=O)N[C@@H](Cc2ccc(-c3ncc(-c4ccc(Cl)cc4)cn3)cc2)C(=O)O)cc1"
reported_result = "5.00 to 5.30"

[[record]]
molecule_smiles = "CCCCCCCOc1ccc(-c2cnc(-c3ccc(C[C@H](NC(=O)c4ccc(C(C)C)cc4)C(=O)N[C@H](Cc4cnc[nH]4)C(=O)O)cc3)nc2)cc1"
reported_result = "> 6.10"


* * *

Items are presented alongside their recorded EC50.
target: UniProt P43220; assay: EC20 GLP-1(9-36) PAM cAMP assay: dose response of compound in the presence of fixed concentration of GLP-1(9-36); conditions: GLP-1R CRE-bla CHO-K1 cells, compound dose response in presence of fixed concentration of GLP-1(9-36)
EXPERIMENTAL_READOUT: EC50

[[record]]
compound = "CC(C)(C)c1ccc(-c2cnc(-c3ccc(C[C@H](NC(=O)c4ccc(C(C)(C)C)s4)C(=O)N[C@@H](CO)C(=O)O)cc3)nc2)cc1 [Compound 352]"
reported_result = "< 0.8 µM"

[[record]]
compound = "Cc1ccc(-c2cnc(-c3ccc(C[C@H](NC(=O)c4ccc(C(C)(C)C)cc4)C(=O)O)cc3)nc2)cc1 [Compound 203]"
reported_result = "5 to 10 µM"

[[record]]
compound = "COc1cc(-c2nc(-c3ccc(C[C@H](NC(=O)c4ccc(C(C)(C)C)cc4)C(=O)O)cc3)no2)cc(OC)c1OC [Compound 39]"
reported_result = "0.8 to 2.5 µM"


* * *

// EC50 lookup, one value per entry
biological target: GLP-1R (Homo sapiens); assay: EC20 GLP-1(9-36) PAM cAMP assay: dose response of compound in the presence of fixed concentration of GLP-1(9-36); conditions: GLP-1R CRE-bla CHO-K1 cells, compound dose response in presence of fixed concentration of GLP-1(9-36)
EXPERIMENTAL_READOUT: EC50

[[record]]
molecule_smiles = "CC(C)(C)c1ccc(C(=O)N[C@@H](Cc2ccc(-c3ncc(-c4cccc(C(C)(C)C)c4)cn3)cc2)C(=O)O)cc1"
reported_result = "2.5 to 5 µM"

[[record]]
molecule_smiles = "CCCCCCCOc1ccc(-c2nc(-c3ccc(C[C@H](NC(=O)c4ccc(C(C)(C)C)cc4)C(=O)O)cc3)no2)cn1"
reported_result = "2.5 to 5 µM"

[[record]]
molecule_smiles = "CCCCCCCOc1ccc(-c2cnc(-c3ccc(C[C@H](NC(=O)c4ccc(C(C)(C)C)cc4)C(=O)NCC(=O)NS(C)(=O)=O)cc3)nc2)cc1"
reported_result = "0.8 to 2.5 µM"


* * *

molecular target: GLP-1R (Homo sapiens); assay: EC20 GLP-1(9-36) PAM cAMP assay: dose response of compound in the presence of fixed concentration of GLP-1(9-36); details: GLP-1R CRE-bla CHO-K1 cells, compound dose response in presence of fixed concentration of GLP-1(9-36)
EXPERIMENTAL_READOUT: EC50

[[record]]
molecule_smiles = "CC(C)(C)c1ccc(C(=O)N[C@@H](Cc2ccc(-c3ncc(-c4ccc(-c5ccccc5)cc4)cn3)cc2)C(=O)O)cc1"
reported_result = "800 to 2500 nM"

[[record]]
molecule_smiles = "CC(C)(C)c1ccc(-c2cnc(-c3ccc(C[C@H](NC(=O)c4ncc(C(C)(C)C)s4)C(=O)O)cc3)nc2)cc1"
reported_result = "800 to 2500 nM"

[[record]]
molecule_smiles = "CC(C)(C)c1ccc(-c2cnc(-c3ccc(C[C@H](NC(=O)c4ccc(C(C)(C)C)s4)C(=O)N[C@@H](CC(=O)O)C(=O)O)cc3)nc2)cc1"
reported_result = "800 to 2500 nM"

[[record]]
molecule_smiles = "COc1cc(C)ccc1-c1nc(-c2ccc(C[C@H](NC(=O)c3ccc(C(C)(C)C)cc3)C(=O)O)cc2)no1"
reported_result = "5000 to 10000 nM"

[[record]]
molecule_smiles = "CCCCCCCOc1ccc(-c2cnc(-c3ccc(C[C@H](NS(=O)(=O)c4ccc(Cl)c(Cl)c4)C(=O)O)cc3)nc2)cc1"
reported_result = "2500 to 5000 nM"

[[record]]
molecule_smiles = "CCCCCCCOc1ccc(-c2cnc(-c3ccc(C[C@H](NC(=O)c4ccc(C(C)(C)C)s4)C(=O)N4CC[C@@H](C(=O)O)C4)cc3)nc2)cc1"
reported_result = "800 to 2500 nM"

